B1: TRIM39 (parent)
chain: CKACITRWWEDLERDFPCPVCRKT

Variants of: B1
procedure_details: protein stability index of a GFP-peptide fusion (GPS, HEK-293T) (PSI 1-6); higher = more stable;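 note: lentivirally expressed fusions sorted by FACS into six bins by GFP to DsRed ratio, PSI derived from sequencing read proportions per bin multiplied by bin number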
measurement_context: c terminus: a fixed tail appended
What protein stability index was measured for each of the following?
Numbers only.

{"columns": ["mutation", "protein stability index"],
 "data": [
  ["R7A", 4.08],
  ["C4G", 1.65],
  ["L12E", 3.29]
]}

// each variant listed below needs its protein stability index
1. E10S
2. C21T
3. D11N
4. A3E

Ans.
[3.78, 1.56, 4.06, 4.12]
